Study Target: HDAC6 enzyme (Homo sapiens, UniProt Q9UBN7)
Construct: prepared by transducing full length HDAC1 and HDAC6 genes into Sf-9 insect cells; GST; purchased SignalChem; host or cells: Sf-9 insect cells
Sequence (Q9UBN7 1-1215): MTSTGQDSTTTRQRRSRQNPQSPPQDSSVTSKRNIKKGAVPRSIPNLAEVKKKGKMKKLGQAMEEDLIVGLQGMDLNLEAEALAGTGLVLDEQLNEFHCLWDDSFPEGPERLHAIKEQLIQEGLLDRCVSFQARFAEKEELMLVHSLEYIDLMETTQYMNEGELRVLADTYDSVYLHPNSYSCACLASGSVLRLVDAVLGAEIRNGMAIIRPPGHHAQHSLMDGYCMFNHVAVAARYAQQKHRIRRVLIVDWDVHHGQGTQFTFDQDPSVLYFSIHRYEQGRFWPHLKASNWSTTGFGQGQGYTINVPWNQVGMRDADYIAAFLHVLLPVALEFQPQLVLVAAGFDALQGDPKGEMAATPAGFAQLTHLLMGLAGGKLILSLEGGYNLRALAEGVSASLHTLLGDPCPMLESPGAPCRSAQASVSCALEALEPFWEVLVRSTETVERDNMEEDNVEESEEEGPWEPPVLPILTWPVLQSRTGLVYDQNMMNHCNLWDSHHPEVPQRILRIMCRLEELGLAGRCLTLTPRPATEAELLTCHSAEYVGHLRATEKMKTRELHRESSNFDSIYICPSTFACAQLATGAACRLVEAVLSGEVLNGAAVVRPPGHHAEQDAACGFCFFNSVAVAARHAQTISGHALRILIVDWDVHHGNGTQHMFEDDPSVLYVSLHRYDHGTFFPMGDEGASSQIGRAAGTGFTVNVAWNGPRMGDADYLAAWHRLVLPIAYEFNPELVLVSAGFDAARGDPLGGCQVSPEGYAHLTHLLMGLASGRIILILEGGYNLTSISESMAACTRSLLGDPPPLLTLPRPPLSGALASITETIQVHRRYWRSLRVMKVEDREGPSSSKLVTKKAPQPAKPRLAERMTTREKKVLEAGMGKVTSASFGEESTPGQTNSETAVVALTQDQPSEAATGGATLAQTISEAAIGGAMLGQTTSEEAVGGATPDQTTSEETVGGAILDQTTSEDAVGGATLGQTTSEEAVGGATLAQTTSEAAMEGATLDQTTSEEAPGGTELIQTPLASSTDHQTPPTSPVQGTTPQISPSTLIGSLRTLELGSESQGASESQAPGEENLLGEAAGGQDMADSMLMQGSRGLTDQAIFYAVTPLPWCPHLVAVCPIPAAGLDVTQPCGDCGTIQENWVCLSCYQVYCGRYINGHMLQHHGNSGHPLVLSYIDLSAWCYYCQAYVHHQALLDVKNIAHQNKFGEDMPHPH
Assay Summary: HDAC6 enzyme inhibitory assay (HDAC-Glo I/II Assay kit)
Type: biochemical
Stated Conditions: 1 μM test compound; read-out: HDAC6 inhibitory rate (%) (1 μM)
Assay Endpoint: inhibition at 1 µM (%)
Give your result in % as a bare value.

*Q* Complete the entry with inhibition at 1 µM for `Cn1cc(C(=O)N2CCOC[C@@H]2CNC(=O)c2ccc(-c3noc(C(F)(F)F)n3)cc2)cn1`
*A* 88

*Q* Give recorded inhibition at 1 µM. O=C(NCC1COCCN1C(=O)c1ccccn1)c1ccc(-c2noc(C(F)(F)F)n2)s1 (stereo not drawn)
*A* 92

*Q* # return recorded inhibition at 1 µM for input CC(C)(C(=O)N1CCOCC1CNC(=O)c1ccc(-c2noc(C(F)(F)F)n2)cc1)n1cccn1 (stereo in doubt)
*A* 99
